system: MDA-MB-231 breast; assay: NCI tumour cell line growth inhibition, 48 h
In this section we review reported GI50 values for a set of compounds.
measure: GI50

[[record]]
compound = "COc1ccc2cc1Oc1ccc(cc1)CC1c3c(cc(OC)c4c3Oc3cc5c(cc3O4)CCNC5C2)CCN1C (stereo not given)"
target_or_test_system = "MDA-MB-231 breast"
result = "1730 nM"

[[record]]
compound = "COC(=O)c1sc(=S)c2sc(C(=O)OC)c(C(=O)OC)c2c1C(=O)OC"
target_or_test_system = "MDA-MB-231 breast"
result = "36300 nM"

[[record]]
compound = "O=C(NCCNC1=CC(=O)c2nc3ccccc3c3ccnc1c23)c1cnccn1"
target_or_test_system = "MDA-MB-231 breast"
result = "58500 nM"

[[record]]
compound = "COc1ccc(C2CC(c3cccc(Nc4ccncc4)c3)=NN2c2ccccc2)cc1 (stereo not given)"
target_or_test_system = "MDA-MB-231 breast"
result = "1620 nM"

[[record]]
compound = "O=C(Nc1ccc(-n2cc(-c3ccncc3)c(-c3ccc(Cl)c(O)c3)n2)cc1)c1ccc(Cl)c(Cl)c1"
target_or_test_system = "MDA-MB-231 breast"
result = "1170 nM"


====

test system: MALME-3M melanoma; assay: NCI tumour cell line growth inhibition, 48 h; in the data active = GI50 below about 0.43 µM; inactive = the rest
Possible outcomes: Yes = active, No = inactive

[[record]]
compound = "COc1ccc(C2CC(c3cccc(Nc4ccncc4)c3)=NN2c2ccccc2)cc1 (stereo not given)"
label = "No"

[[record]]
compound = "COc1ccccc1CNCCCN1C(=O)c2ccc3c4c(ccc(c24)C1=O)C(=O)N(CCCNCCCCN)C3=O"
label = "Yes"

[[record]]
compound = "COc1cc2c(cc1OC)C(Sc1ccc(Cl)cc1)c1c(nc(N)c(C#N)c1N)O2 (stereo not given)"
label = "No"

[[record]]
compound = "CC(C)(C)OC(=O)CC(S(=O)(=O)c1ccccc1)S(=O)(=O)c1ccccc1"
label = "No"

[[record]]
compound = "Nc1nc2c([nH]1)c1[nH]c3ccccc3c1c1[nH]c3ccccc3c21"
label = "No"

[[record]]
compound = "COc1ccc(-c2nc3sccn3c2/C=C/C(=O)c2cc(OC)c(OC)c(OC)c2)cc1"
label = "No"

[[record]]
compound = "COc1cc(C(=O)/C=C/c2c(C)n([O-])c3ccc(Cl)cc3[n+]2=O)cc(OC)c1OC"
label = "No"

[[record]]
compound = "COc1ccc(C2=NOC3=c4ccccc4=CSC3=C2c2ccccc2)cc1"
label = "No"

[[record]]
compound = "C#CCN(CCCOc1ccc(Cl)cc1Cl)CCCSC(=O)CCCCCN1/C(=C\\C=C2/CCCC(/C=C/C3=[N+](CCCCCC(=O)[O-])c4ccccc4C3(C)C)=C2Cl)C(C)(C)c2ccccc21"
label = "No"

[[record]]
compound = "COc1cc(C(=O)Nc2ccc(-c3nc4ccccc4[nH]3)cc2)cc(OC)c1OC"
label = "No"

[[record]]
compound = "CC(=O)O[C@H]1C(=O)[C@@]2(C)C([C@H](OC(=O)c3ccccc3)[C@]3(O)C[C@H](OC(=O)[C@H](O)[C@@H](NC(=O)c4ccc(Cl)cc4)c4ccccc4)C(C)=C1C3(C)C)C1(OC(C)=O)CO[C@@H]1C[C@@H]2O (stereo not given in full)"
label = "Yes"

[[record]]
compound = "Oc1ccccc1/C=N/c1nc(-c2ccccc2)cs1"
label = "No"

[[record]]
compound = "COc1cc(-c2ccc[nH]2)[nH]c1/C=C1\\N=C(C)C(C(=O)NC(C)C)=C1C"
label = "No"

[[record]]
compound = "O=C(NCCNC1=CC(=O)c2nc3ccccc3c3ccnc1c23)c1cnccn1"
label = "No"

[[record]]
compound = "Cn1cc(C2=C(c3cccc([N+](=O)[O-])c3)C(=O)NC2=O)c2ccccc21"
label = "No"


====

tested on: UACC-62 melanoma; experiment: NCI tumour cell line growth inhibition, 48 h
In this section we review reported TGI values for a set of compounds.
measure: TGI

[[record]]
compound = "NCC1OC(OC2C(N)CC(N)C(O)C2OC2OC(CO)C(O)C2O)C(N)C(O)C1O (configuration not stated)"
result = "> 100 µM"

[[record]]
compound = "Nc1cccc(C(=O)/C=C/c2ccccc2O)c1"
result = "> 100 µM"

[[record]]
compound = "N#CC(C#N)=C/C=C/c1ccccc1[N+](=O)[O-]"
result = "9.39 µM"

[[record]]
compound = "Cc1ccccc1NC(=O)C(=O)CC(=O)c1sc(-n2nc(-c3ccccc3)cc2-c2ccccc2)nc1C"
result = "> 100 µM"

[[record]]
compound = "COc1cc2c(cc1OC)C(Sc1ccc(Cl)cc1)c1c(nc(N)c(C#N)c1N)O2 (configuration not stated)"
result = "2.66 µM"

[[record]]
compound = "Cc1cc2nc3c(C(OC4OC(CO)C(O)C(O)C4O)C(O)CO)nn(-c4ccc(F)cc4)c3nc2cc1C (configuration not stated)"
result = "> 100 µM"

[[record]]
compound = "CN1CCC(C(=O)Nc2n[nH]c3nnc(-c4ccccc4)cc23)CC1"
result = "> 25 µM"

[[record]]
compound = "CCOC(=O)NCC(=O)NCC(=O)NCC(N)=O"
result = "> 100 µM"

[[record]]
compound = "CCCCCCC1CCCCN1C(c1ccccc1)C(O)c1ccccc1 (configuration not stated)"
result = "24.8 µM"

[[record]]
compound = "c1ccc(-c2nc3ccccc3[nH]2)c(OCCCCCOc2ccccc2-c2nc3ccccc3[nH]2)c1"
result = "27.6 µM"

[[record]]
compound = "COc1cc2c(cc1OC)C(C1CC1)ON(C)CC2 (configuration not stated)"
result = "> 100 µM"

[[record]]
compound = "Fc1nc(Sc2ncnc3nc[nH]c23)nc(-c2c3ccccc3c3sc4ccccc4n23)n1"
result = "> 100 µM"

[[record]]
compound = "CC(C)(C)C(=O)C(N)C(=O)C(C)(C)C"
result = "> 100 µM"

[[record]]
compound = "COc1cc(OC)c(OC)cc1/C=C\\c1ccnc2ccccc12"
result = "> 67.9 µM"

[[record]]
compound = "O=C(/C=C/c1ccccn1)c1ccccc1"
result = "7 µM"

[[record]]
compound = "COc1ccc(S(=O)(=O)NNS(C)(=O)=O)cc1OC"
result = "> 100 µM"

[[record]]
compound = "COC(=O)c1sc2c(Cl)c(Cl)sc2c1Cl"
result = "> 100 µM"

[[record]]
compound = "O=C(Cc1csc2nc(-c3ccc(Br)cc3)cn12)N/N=C/c1ccccc1O"
result = "7.28 µM"

[[record]]
compound = "Cc1ccc(-n2cc(/C(N)=N/O)c3ccccc3c2=O)cc1"
result = "> 100 µM"

[[record]]
compound = "NCC[PH+](c1ccccc1)c1ccccc1.NCC[PH+](c1ccccc1)c1ccccc1.[Cl-].[Pt+4]"
result = "> 100 µM"

[[record]]
compound = "C#CCN(CCCOc1ccc(Cl)cc1Cl)CCCSC(=O)CCCCCN1/C(=C\\C=C2/CCCC(/C=C/C3=[N+](CCCCCC(=O)[O-])c4ccccc4C3(C)C)=C2Cl)C(C)(C)c2ccccc21"
result = "3.14 µM"

[[record]]
compound = "CN(Cc1cnc2nc(N)nc(N)c2n1)c1c(Cl)cc(C(=O)NC(CCC(=O)O)C(=O)O)cc1Br (configuration not stated)"
result = "> 100 µM"

[[record]]
compound = "Cc1c(C)c2c(c(N)c1C#N)C(=O)N(NC(=S)Nc1ccccc1)C2=O"
result = "> 100 µM"

[[record]]
compound = "CC1=NN(c2cc(Cl)c(S(=O)(=O)O)cc2Cl)C2(C1)C(Cl)C(=O)N2c1nc2ccccc2s1 (configuration not stated)"
result = "> 100 µM"

[[record]]
compound = "O=[N+]([O-])/C=C/c1cn(CCCCCCCCn2cc(/C=C/[N+](=O)[O-])c3ccccc32)c2ccccc12"
result = "> 10 µM"

[[record]]
compound = "c1ccc2c(c1)ccc1cc3cc(NCCCCNc4ccc5nc6c(ccc7ccccc76)cc5c4)ccc3nc12"
result = "3.04 µM"

[[record]]
compound = "COC(=O)[C@]1(c2cc3ccccc3[nH]2)CC2CNC1C1OC(C)(C)OC21 (some centres not stated)"
result = "> 100 µM"

[[record]]
compound = "CNC(=O)N(CCCCC(NC(C)=O)C(=O)NCc1ccccc1)Cc1ccccc1 (configuration not stated)"
result = "> 100 µM"

[[record]]
compound = "CC1(C)O[C@@H](CCl)C[C@@H](C#N)O1"
result = "> 100 µM"

[[record]]
compound = "COc1ccc(C2CC(c3cccc(Nc4ccncc4)c3)=NN2c2ccccc2)cc1 (configuration not stated)"
result = "3.21 µM"

[[record]]
compound = "CC1(c2ccc(Cl)cc2)c2ccccc2C(=O)N1CCCN1C(=O)c2ccccc2C1=O (configuration not stated)"
result = "> 100 µM"

[[record]]
compound = "CC[C@]1(O)C[C@@H]2CN(CCc3c([nH]c4ccccc34)[C@@](C(=O)OC)(c3cc4c(cc3OC)N(C)[C@H]3[C@@](O)(C(=O)OC)[C@H](OC(=O)CCCBr)[C@]5(CC)C=CCN6CC[C@]43[C@@H]65)C2)C1"
result = "> 100 µM"

[[record]]
compound = "Cc1cc(C)nc(NS(=O)(=O)c2ccc(NC(=O)c3ccc4nc5ccccc5c(Nc5ccc(S(=O)(=O)N=C(N)N)cc5)c4c3)cc2)n1"
result = "> 100 µM"

[[record]]
compound = "Cc1cc(Br)c(O)c(-c2cscn2)c1"
result = "28.2 µM"

[[record]]
compound = "O=C(Nc1ccc(-n2cc(-c3ccncc3)c(-c3ccc(Cl)c(O)c3)n2)cc1)c1ccc(Cl)c(Cl)c1"
result = "22.4 µM"

[[record]]
compound = "CC1CC[C@@]2(OC1)OC1C[C@H]3[C@@H]4CC=C5C[C@@H](OC6OC(CO)C(OC7OC(CO)C(O)C(O)C7O)C(O)C6OC6OC(C)C(O)C(O)C6O)CC[C@]5(C)[C@H]4CC[C@]3(C)C1[C@@H]2C (some centres not stated)"
result = "0.876 µM"

[[record]]
compound = "COc1cc(CNc2nc3c(NC(C)=O)cc(C(F)(F)F)cc3nc2-c2ccccc2)cc(OC)c1OC"
result = "> 100 µM"

